Substrate: CC(=O)Oc1ccc([N+](=O)[O-])cc1
Experiment: purified protein
Assay type: biochemical, Pelagibacterium halotolerans
Conditions: 100 mM Tris-HCl pH 7.5, 30 °C, 0.05-4 mM substrate in acetonitrile
Vmax: recorded values

protein: PE8 (Pelagibacterium halotolerans B2; R83A) (protein, 6xHis fusion from pET28b in E. coli Rosetta (DE3), Ni-NTA and SEC; monomer; catalytic triad Ser118, Asp169, His201) MTEPVKLSGPMLPAVSGAAKSLVVLLHGYGSDGRDLIALGQFWRDSFPDTMFVAPNAPHVCGGNPFGYEWFPLDLERDRTLAALAGAETAHPVLDAFLADLWAQTGLGPADTILVGFSQGAMMALYTGLRLPEPLKAIIAFSGLIVAPEKLEAEIASKPPVLLIHGDLDDVVPVIGSETALPKLIDLGIDARLHISQGSGHTIAQDGLDTATAFLREIL
Vmax / µM/min/mg: 97
//
protein: PE8 (Pelagibacterium halotolerans B2; L73A) (protein, 6xHis fusion from pET28b in E. coli Rosetta (DE3), Ni-NTA and SEC; monomer; catalytic triad Ser118, Asp169, His201) MTEPVKLSGPMLPAVSGAAKSLVVLLHGYGSDGRDLIALGQFWRDSFPDTMFVAPNAPHVCGGNPFGYEWFPADLERDRTLARLAGAETAHPVLDAFLADLWAQTGLGPADTILVGFSQGAMMALYTGLRLPEPLKAIIAFSGLIVAPEKLEAEIASKPPVLLIHGDLDDVVPVIGSETALPKLIDLGIDARLHISQGSGHTIAQDGLDTATAFLREIL
Vmax / µM/min/mg: 55
//
protein: PE8 (Pelagibacterium halotolerans B2; V171A) (protein, 6xHis fusion from pET28b in E. coli Rosetta (DE3), Ni-NTA and SEC; monomer; catalytic triad Ser118, Asp169, His201) MTEPVKLSGPMLPAVSGAAKSLVVLLHGYGSDGRDLIALGQFWRDSFPDTMFVAPNAPHVCGGNPFGYEWFPLDLERDRTLARLAGAETAHPVLDAFLADLWAQTGLGPADTILVGFSQGAMMALYTGLRLPEPLKAIIAFSGLIVAPEKLEAEIASKPPVLLIHGDLDDAVPVIGSETALPKLIDLGIDARLHISQGSGHTIAQDGLDTATAFLREIL
Vmax / µM/min/mg: 36

Values compiled from paper PMC5493697.
